- measurement_notes: AUC in mouse at 20 mg/kg, po
- Type: ADME, organism-based, Plasma
- Parameters: dose 20 mg/kg, route oral
- assay_conditions: mouse, plasma, po, 20 mg/kg
recorded_endpoint: AUC (µM·h)
Your answer is read as µM·h, so omit the unit and give the number.

In plain terms, `CCN(CC)CCCCNc1cc(-n2c(Nc3cc(NC(=O)c4cccc(C(F)(F)F)c4)ccc3C)nc3ccccc32)ncn1` has a documented AUC of 0.368

====

Observed pIC50 for Tyrosine-protein kinase Lck (Homo sapiens, UniProt P06239), reported per entry below.
By convention, pIC50 is the negative base-10 log of a molar concentration.

Examples with their reported pIC50 follow.
Cc1ccc(NC(=O)c2cccc(C(F)(F)F)c2)cc1Nc1nc2ccccc2n1-c1cc(NCCCN2CCN(C)CC2)ncn1	8.22
Cc1ccc(NC(=O)c2cccc(C(F)(F)F)c2)cc1Nc1nc2ccccc2n1-c1cc(NCCCC2COCCN2)ncn1 (stereo not drawn)	7.59
Cc1ccc(C(=O)Nc2cccc3cnccc23)cc1Nc1nc2ccccc2n1-c1cc(N)ncn1	6.21
Cc1ccc(NC(=O)c2cccc(Cl)c2)cc1Nc1nc2ccccc2n1-c1cc(N)ncn1	6.88
Cc1ccc(C(=O)Nc2cccc(C(F)(F)F)c2)cc1Nc1nc2ccccc2n1-c1cc(NCCCCN(C)C)ncn1	7.82
Cc1ccc(C(=O)Nc2cccc(Br)c2)cc1Nc1nc2ccccc2n1-c1cc(N)ncn1	7.37

Observed pIC50, Tyrosine-protein kinase Lck (Homo sapiens, UniProt P06239), `Cc1ccc(NC(=O)c2cc(C3CC3)n[nH]2)cc1Nc1nc2ccccc2n1-c1cc(N)ncn1` : 6.92

pIC50 on Tyrosine-protein kinase Lck (Homo sapiens, UniProt P06239) for `Cc1ccc(NC(=O)c2cccc(C(F)(F)F)c2)cc1Nc1nc2ccccc2n1-c1cc(NCCN2CCN(C)CC2)ncn1` is 7.54
